Target System: Cathepsin S (Homo sapiens)
Sequence (P25774 115-331, species assumed): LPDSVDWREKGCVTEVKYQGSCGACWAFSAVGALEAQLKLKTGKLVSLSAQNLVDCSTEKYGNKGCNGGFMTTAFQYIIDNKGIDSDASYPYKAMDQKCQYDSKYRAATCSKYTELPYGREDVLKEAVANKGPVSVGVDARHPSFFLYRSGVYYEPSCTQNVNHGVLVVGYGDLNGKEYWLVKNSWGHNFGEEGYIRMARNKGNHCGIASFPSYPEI
Protocol Details: Cathepsin S inhibition, fluorogenic peptide substrate kinetic assay
Type: biochemical
Condition Notes: Table II; Cathepsin S inhibition constant, pH5.5; read-out: Ki Cat. S
pKi: −log10 of the molar value.
Provide the recorded pKi for the entries that follow.

Solved entries (count: 3):
Molecule	Result
Cc1cccc(C(=O)N[C@@H](CCC2CCCCC2)C(=O)NCCN2CCc3cc(F)ccc32)c1 [Compound 204]	> 6.00
COc1cccc(C(=O)N[C@@H](CCC2CCCCC2)C(=O)N[C@@H](CCCCNC(=O)OCc2ccccc2)CN2CCc3cc(F)ccc32)c1 [Compound 55]	> 6.00
C[C@@H](CN1CCc2cc(F)ccc21)NC(=O)[C@H](CC(C)(C)C)NC(=O)Cc1nnn[nH]1 [Compound 179]	> 6.00

Each of the following entries comes with a recorded value; kindly state pKi for each.
1. Cc1cccc(S(=O)(=O)N[C@@H](CC(C)(C)C)C(=O)N[C@@H](CC(=O)OC(C)(C)C)CN2CCc3cc(F)ccc32)c1 [Compound 252]
2. O=C(NCCN1CCc2cc(F)ccc21)[C@H](CC1CCCCC1)NS(=O)(=O)c1ccc(Oc2ccc(F)cc2)cc1 [Compound 236]
3. O=C(N[C@@H](CC1CCCCC1)C(=O)NCCN1CCc2cc(F)ccc21)c1ccc(OC2CCNCC2)cc1 [Compound 67]

> 6.00
> 6.00
> 6.00

Kindly give each listed record's pKi.
1. CC(C)(C)C[C@H](NC(=O)OCc1ccccc1)C(=O)N[C@@H](CC(=O)OC(C)(C)C)CN1CCc2cc(F)ccc21 [Compound 158]
2. COc1ccc(NC[C@H](C)NC(=O)[C@H](CCC2CCCCC2)NC(=O)c2ccc(-c3cccc(C(F)(F)F)c3)o2)cc1 [Compound 27]
3. C[C@@H](CN1CCc2cc(F)ccc21)NC(=O)[C@H](CC1CCCCC1)NS(=O)(=O)c1cccc(Cl)c1 [Compound 259]
4. C[C@@H](CNc1ccc(OCc2ccccc2)cc1)NC(=O)[C@H](CC1CCCCC1)NC(=O)c1ccc(-c2cccc(F)c2)o1 [Compound 266]
5. C[C@@H](CN1CCc2cc(F)ccc21)NC(=O)[C@H](CC(C)(C)C)NC(=O)c1ccnnc1 [Compound 178]
6. C[C@@H](CN1CC(C)(C)c2cc(F)ccc21)NC(=O)[C@H](CC(C)(C)C)NC(=O)[C@H]1CCCO1 [Compound 271]

["> 6.00", "> 7.00", "> 7.00", "> 7.00", "> 7.00", "> 5.00"]

Dear colleague, could you send me pKi for each of the items below? Thanks.
1. CS(=O)(=O)N1CCC(Oc2ccc(C(=O)N[C@@H](CC3CCCCC3)C(=O)NCCN3CCc4cc(F)ccc43)cc2)CC1 [Compound 68]
2. C[C@@H](CNc1cc(F)ccc1F)NC(=O)[C@H](CC1CCCCC1)NC(=O)c1ccc(-c2cccc(F)c2)o1 [Compound 91]

1: > 6.00; 2: > 7.00
